Would you kindly list inhibition at 198 µM for each of these compounds?
- Test system: KG-1
- method.description: CellTiterGlo cell viability assay, KG-1
- Format: cell-based
- conditions.used: Homo sapiens; KG-1, 72 h, percentage inhibition at the highest concentration tested; read-out: Top Inhibit
Answers without a unit are incomplete; give the number and then its unit.

Hi there! I need inhibition at 198 µM for each item below, if you can.
1. COC(=O)[C@H](C)NP(=O)(Oc1ccccc1)OP(=O)(O)OC[C@H]1O[C@@H](n2cnc3c(N)nc(Cl)nc32)[C@H](F)C1O (stereo partly drawn)
2. CC(C)OC(=O)[C@H](C)NP(=O)(Oc1ccccc1)OP(=O)(O)OC[C@H]1O[C@@H](n2cnc3c(N)nc(Cl)nc32)[C@H](F)C1O (stereo partly drawn)
3. CCOC(=O)[C@@H](NP(=O)(Oc1ccccc1)OP(=O)(O)OC[C@H]1O[C@@H](n2cnc3c(N)nc(Cl)nc32)C(F)[C@H]1O)C(C)CC (stereo partly drawn)
4. C[C@@H](NP(=O)(Oc1ccccc1)OP(=O)(O)OC[C@H]1O[C@@H](n2cnc3c(N)nc(Cl)nc32)[C@H](F)C1O)C(=O)OCC(C)(C)C (stereo partly drawn)

Ans.
1: 93%; 2: 92%; 3: 91%; 4: 93%

Hi there! I need inhibition at 198 µM for each item below, if you can.
1. CC(C)(NP(=O)(Oc1cccc2ccccc12)OP(=O)(O)OC[C@H]1O[C@@H](n2cnc3c(N)nc(Cl)nc32)[C@H](F)C1O)C(=O)OCc1ccccc1 (stereo partly drawn)
2. Nc1nc(Cl)nc2c1ncn2[C@@H]1O[C@H](CO)[C@@H](O)[C@@H]1F [Clofarabine, reference compound]

Ans.
["92%", "93%"]

====

- method.description: in vitro
- conditions.used: human, pooled cryopreserved hepatocytes, pH 7.3
metric: half-life at 1 μM (h)
Answers are plain numbers, in h.

Qu. Supply half-life at 1 μM value. Item: O=c1[nH]c(=O)n([C@H]2C[C@H](O)[C@@H](CO)O2)cc1F [FUDR, 5-fluoro-2′-deoxyuridine, reference compound]
Ans. 1.15

====

- Test system: RL
- method.description: CellTiterGlo cell viability assay, RL
- Format: cell-based
- conditions.used: 72 h, Table 4 classes, read-out: Ab EC50
metric: EC50

Qu. Supply EC50 value. Item: CCN(CC)CC.C[C@H](NP(=O)(Oc1cccc2ccccc12)OP(O)(=S)OC[C@H]1O[C@@H](n2cnc3c(N)nc(Cl)nc32)[C@@H](F)[C@@H]1O)C(=O)OCc1ccccc1 (stereo partly shown)
Ans. > 10 µM

====

- Test system: Mia-Pa-Ca-2
- method.description: CellTiterGlo cell viability assay, Mia-Pa-Ca-2
- Format: cell-based
- conditions.used: Homo sapiens, MIA PaCa-2; Mia-Pa-Ca-2, 72 h, percentage inhibition at the highest concentration tested; read-out: Top Inhibit
Would you kindly list inhibition at 198 µM for each of these compounds?
Answers are plain numbers, in %.

Some solved cases for reference:
Qu. Supply inhibition at 198 µM value. Item: C[C@H](NP(=O)(Oc1cccc2ccccc12)OP(=O)(O)OC[C@H]1O[C@@H](n2cc(F)c(=O)[nH]c2=O)CC1O)C(=O)OCc1ccccc1 (stereo partly drawn)
Ans. 67

Qu. Supply inhibition at 198 µM value. Item: Nc1ncnc2c1ncn2[C@@H]1O[C@H](CO)C[C@H]1O [Cordycepin, reference compound]
Ans. 88

// next entry
Qu. Supply inhibition at 198 µM value. Item: C[C@H](NP(=O)(Oc1cccc2ccccc12)OP(=O)(O)OC[C@H]1O[C@@H](n2c(Cl)nc3c(N)ncnc32)[C@@H](O)C1O)C(=O)OCc1ccccc1 (stereo partly drawn)
Ans. 87.6

====

Would you kindly list pEC50 for each of these compounds?
- System: MCF-7
- method.description: CellTiterGlo cell viability assay, MCF-7
- Type: cell-based
- conditions.used: Homo sapiens, MCF7; MCF-7, 72 h, absolute EC50, numeric values; read-out: Ab EC50
Numbers only, as −log10 of the molar value.

Qu. State the measured pEC50 (MCF-7) of O=c1[nH]c(=O)n([C@H]2C[C@H](O)[C@@H](CO)O2)cc1F [FUDR, 5-fluoro-2′-deoxyuridine, reference compound]
Ans. 5.14

// next entry
Qu. State the measured pEC50 (MCF-7) of Nc1ccn([C@@H]2O[C@H](CO)[C@@H](O)C2(F)F)c(=O)n1 [Gemcitabine, reference compound]
Ans. 7.96

====

Would you kindly list EC50 for each of these molecules?
- Test system: MCF-7
- method.description: CellTiterGlo cell viability assay, MCF-7
- Format: cell-based
- conditions.used: Homo sapiens, MCF7, 72 h, MCF-7, 72 h, Table 3 classes; read-out: Ab EC50

Qu. Supply EC50 value. Item: C[C@H](NP(=O)(Oc1ccccc1)OP(=O)(O)OC[C@H]1O[C@@H](n2cnc3c(N)nc(Cl)nc32)[C@H](F)C1O)C(=O)OCc1ccccc1 (stereo partly shown)
Ans. 200 to 2000 nM

Qu. Supply EC50 value. Item: CCOC(=O)[C@H](C)NP(=O)(Oc1ccccc1)OP(=O)(O)OC[C@H]1O[C@@H](n2cnc3c(N)nc(Cl)nc32)[C@H](F)C1O (stereo partly shown)
Ans. 200 to 2000 nM

Hi there! I need EC50 for each item below, if you can.
1. Nc1nc(Cl)nc2c1ncn2[C@@H]1O[C@H](CO)[C@@H](O)[C@@H]1F [Clofarabine, reference compound]
2. Nc1nc(Cl)nc2c1ncn2[C@@H]1O[C@H](COP(=O)(O)OP(=O)(NCC(=O)OCc2ccccc2)Oc2ccccc2)C(O)[C@H]1F (stereo partly shown)

Ans.
1: 200 to 2000 nM; 2: 2000 to 5000 nM

====

- System: HL-60
- method.description: CellTiterGlo cell viability assay, HL-60
- Format: cell-based
- conditions.used: Homo sapiens, HL-60, 72 h, read-out: Ab EC50, HL-60, 72 h, Table 3 classes
pEC50: −log10 of the molar value.
metric: pEC50

Qu. Supply pEC50 value. Item: C[C@H](NP(=O)(OC[C@H]1O[C@@H](n2cnc3c(N)nc(Cl)nc32)[C@H](F)C1O)Oc1ccccc1)C(=O)OCc1ccccc1 (stereo partly shown) [A, reference compound]
Ans. 5.70 to 6.70

====

Would you kindly list half-life for each of these compounds?
- method.description: in vitro
- conditions.used: human, hepatocytes, pH 7.3
Give bare numbers, in min.

Qu. Supply half-life value. Item: Nc1ncnc2c1ncn2[C@@H]1O[C@H](CO)C[C@H]1O [Cordycepin, reference compound]
Ans. 48

Qu. Supply half-life value. Item: C[C@H](NP(=O)(Oc1cccc2ccccc12)OP(=O)(O)OC[C@H]1O[C@@H](n2cc(F)c(=O)[nH]c2=O)CC1O)C(=O)OCc1ccccc1 (some centres unmarked)
Ans. 15

Further cases:
Qu. Supply half-life value. Item: C[C@H](NP(=O)(Oc1cccc2ccccc12)OP(=O)(O)OC[C@H]1O[C@@H](n2c(Cl)nc3c(N)ncnc32)[C@@H](O)C1O)C(=O)OCc1ccccc1 (some centres unmarked)
Ans. 18

====

- Tested on: Mia-Pa-Ca-2
- method.description: CellTiterGlo cell viability assay, Mia-Pa-Ca-2
- Assay type: cell-based
- conditions.used: Homo sapiens, MIA PaCa-2; Mia-Pa-Ca-2, 72 h, absolute EC50; read-out: Ab EC50
- Description: A subset of compounds of the invention were assayed for their cytotoxic activity in an array of different solid tumours and haematological malignancies using the following assay. In vitro viability assay were performed to assess the effects of compounds on cell viability in selected cell lines over 72 h using the CellTiterGlo (CTG, Promega-G7573) assay. The tests were performed in duplicates with treatment of compounds at 9 points, 3.16 folds titration in 96 well plates over ˜72 h. […]
With a cut-off of 400 nM, any EC50 strictly below it is called condition met; any EC50 meeting it or above is called condition not met.

Known results for compounds:
Qu. API: query returns whether the compound falls strictly under 400 nM in EC50. Query: O=c1[nH]c(=O)n([C@H]2C[C@H](O)[C@@H](CO)O2)cc1F [FUDR, 5-fluoro-2′-deoxyuridine, reference compound]
Ans. condition met

Qu. API: query returns whether the compound falls strictly under 400 nM in EC50. Query: C[C@H](NP(=O)(Oc1cccc2ccccc12)OP(=O)(O)OC[C@H]1O[C@@H](n2cc(F)c(=O)[nH]c2=O)CC1O)C(=O)OCc1ccccc1 (stereo partly drawn) [Example 4]
Ans. condition met

Further cases:
Qu. API: query returns whether the compound falls strictly under 400 nM in EC50. Query: Nc1ncnc2c1ncn2[C@@H]1O[C@H](CO)C[C@H]1O [Cordycepin, reference compound]
Ans. condition not met

Qu. API: query returns whether the compound falls strictly under 400 nM in EC50. Query: C[C@H](NP(=O)(Oc1ccccc1)OP(=O)(O)OC[C@H]1O[C@@H](n2ccc(N)nc2=O)C(F)(F)C1O)C(=O)OCc1ccccc1 (stereo partly drawn) [Example 8]
Ans. condition met

Qu. API: query returns whether the compound falls strictly under 400 nM in EC50. Query: C[C@H](NP(=O)(OC[C@@H]1C[C@H](O)[C@H](n2cnc3c(N)ncnc32)O1)Oc1ccccc1)C(=O)OCc1ccccc1 (stereo partly drawn) [E, reference compound]
Ans. condition not met

Qu. API: query returns whether the compound falls strictly under 400 nM in EC50. Query: C[C@H](NP(=O)(Oc1ccccc1)OP(=O)(O)OC[C@@H]1C[C@H](OP(=O)(O)OP(=O)(N[C@@H](C)C(=O)OCc2ccccc2)Oc2ccccc2)[C@H](n2cnc3c(N)ncnc32)O1)C(=O)OCc1ccccc1 (stereo partly drawn) [Example 7]
Ans. condition not met

Qu. API: query returns whether the compound falls strictly under 400 nM in EC50. Query: C[C@H](NP(=O)(Oc1cccc2ccccc12)OP(=O)(O)OC[C@H]1O[C@@H](n2c(Cl)nc3c(N)ncnc32)[C@@H](O)C1O)C(=O)OCc1ccccc1 (stereo partly drawn) [Example 5]
Ans. condition not met

Qu. API: query returns whether the compound falls strictly under 400 nM in EC50. Query: Nc1ccn([C@@H]2O[C@H](CO)[C@@H](O)C2(F)F)c(=O)n1 [Gemcitabine, reference compound]
Ans. condition met

Qu. API: query returns whether the compound falls strictly under 400 nM in EC50. Query: C[C@H](NP(=O)(Oc1ccccc1)OP(=O)(O)OC[C@@H]1C[C@H](O)[C@H](n2cnc3c(N)ncnc32)O1)C(=O)OCc1ccccc1 (stereo partly drawn) [Example 6]
Ans. condition not met
